- Subject Of Test: mu opioid receptor (MOR) (Homo sapiens, UniProt P35372)
- Sequence (P35372 whole entry): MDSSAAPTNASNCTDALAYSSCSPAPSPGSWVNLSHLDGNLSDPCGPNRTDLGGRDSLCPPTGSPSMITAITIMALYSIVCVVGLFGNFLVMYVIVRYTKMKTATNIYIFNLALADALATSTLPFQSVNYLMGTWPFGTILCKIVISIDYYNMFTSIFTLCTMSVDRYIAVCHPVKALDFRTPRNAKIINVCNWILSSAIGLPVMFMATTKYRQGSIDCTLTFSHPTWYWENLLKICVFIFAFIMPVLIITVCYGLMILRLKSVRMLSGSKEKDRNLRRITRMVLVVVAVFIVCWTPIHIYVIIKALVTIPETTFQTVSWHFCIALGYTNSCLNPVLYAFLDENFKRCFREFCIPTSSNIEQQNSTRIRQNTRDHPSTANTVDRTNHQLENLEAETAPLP
- Assay Text: PathHunter β-arrestin recruitment assay, PAM mode with EC20 endomorphin-1
- Format: cell-based
- Test Conditions: β-arrestin recruitment; read-out: β-arr. EC50
- Experimental: The effects of MOR PAMs and MOR SAMs on receptor activity were assayed using the PathHunter enzyme complementation assay technology (DiscoveRx, CA). A description of the technology employed is as follows. […] In this manner an EC50 for each test compound, and percent maximal response for each test compound, were determined for both the β-arrestin and cAMP pathways. […]
Recorded Metric: EC50

Solved cases below.
- Compound: "COc1cc(C2CCCCN2c2nc(Cl)ncc2F)ccn1 (stereo not drawn)"
  EC50: "> 2100 nM"
- Compound: "O=S(=O)(c1cccc(Cl)c1)N1C2CCC(C2)C1c1ccc(F)c(Br)c1 (stereo not drawn)"
  EC50: "> 2100 nM"
- Compound: "CC1CCN(S(=O)(=O)c2ccc(Cl)cc2)C1c1ccc(Cl)cc1 (mixture of isomers)"
  EC50: "> 2100 nM"
- Compound: "COc1ccc(C2C(F)CCCN2S(=O)(=O)c2ccc(Cl)cc2)cc1Br (stereo not drawn)"
  EC50: "700 to 2100 nM"
- Compound: "Cc1ccc(C2CCCCN2c2nc(Cl)ncc2F)cc1Br (stereo not drawn)"
  EC50: "700 to 2100 nM"

Data request: Provide measured EC50 value, entry: Fc1cncc(C2CCCCN2c2nc(Cl)ncc2F)c1 (stereo not drawn)
Data returned: < 700 nM

Data request: State, in one line, measured EC50 of Fc1cnc(Cl)nc1N1CCCCC1c1cccc(C(F)(F)F)c1 (single isomer, unassigned) [compound 8]
Data returned: < 700 nM

Data request: Determine its reported EC50: O=S(=O)(c1ccc(Cl)cc1)N1CCCCC1c1ccc(F)cn1 (racemic)
Data returned: > 2100 nM

Data request: Consider the compound CCC1CCCN(c2nc(Cl)ncc2F)C1c1ccc(OC)c(Br)c1 (stereo not drawn) [compound 251] . State its measured EC50.
Data returned: > 2100 nM

Data request: Identify measured EC50 corresponding to Fc1cc(C2CCC(F)CN2c2nc(Cl)ncc2F)cc(C(F)(F)F)c1 (stereo not drawn) [compound 312]
Data returned: < 700 nM

Data request: Tell me measured EC50 for O=S(=O)(c1ccc(Cl)cc1)N1CCCCC1c1cccc(OC(F)(F)F)n1 (racemic) please.
Data returned: > 2100 nM

Data request: Given the compound COc1ccc(C2CCCCN2c2cc(F)cc(Cl)n2)cc1Br (stereo not drawn) , write its reported EC50.
Data returned: 700 to 2100 nM

Data request: Give the reported value of EC50 for this record: Fc1ccc(C2CCCCN2Cc2cc(Cl)ccc2F)cc1Cl (stereo not drawn)
Data returned: 700 to 2100 nM

Data request: Give EC50 for O=S(=O)(c1ccc(Cl)cc1)N1CCCCC1c1ccc(C(F)(F)F)cn1 (racemic)
Data returned: > 2100 nM

Data request: Entry Fc1cnc(Cl)nc1N1CCCCC1c1cccc(C(F)(F)F)n1 (stereo not drawn) needs its EC50 filled in; supply it.
Data returned: 700 to 2100 nM

====

Parameter EC50: see the listing below.
- Subject Of Test: mu opioid receptor (MOR) (Homo sapiens)
- Assay Text: PathHunter β-arrestin recruitment assay, PAM mode with EC20 endomorphin-1
- Assay type: cell-based
- Test Conditions: β-arrestin recruitment; read-out: β-arr. EC50

Known results for molecules:
- Molecule: "O[C@H]1CC[C@H](c2cc(F)cc(C(F)(F)F)c2)N(c2nc(Cl)ncc2F)C1 (relative stereo)"
  Subject Of Test: "mu opioid receptor (MOR) (Homo sapiens)"
  Reported Value: "> 2100 nM"
- Molecule: "COc1ncc(N2CCCCC2c2cccc(C(F)(F)F)c2)c(F)n1 (centres unmarked)"
  Subject Of Test: "mu opioid receptor (MOR) (Homo sapiens)"
  Reported Value: "> 2100 nM"
- Molecule: "Cc1coc(C2CCCCN2c2nc(Cl)ncc2F)n1 (centres unmarked)"
  Subject Of Test: "mu opioid receptor (MOR) (Homo sapiens)"
  Reported Value: "< 700 nM"
- Molecule: "O=S(=O)(c1ccc(Cl)cc1F)N1C2CCC(C2)C1c1ccc(F)c(Br)c1 (centres unmarked)"
  Subject Of Test: "mu opioid receptor (MOR) (Homo sapiens)"
  Reported Value: "> 2100 nM"
- Molecule: "COc1cnc(Cl)nc1N1CCCCC1c1cccc(C(F)(F)F)c1 (centres unmarked)"
  Subject Of Test: "mu opioid receptor (MOR) (Homo sapiens)"
  Reported Value: "< 700 nM"

Data request: Report measured EC50; entry is Cc1nccc(N2CCCCC2c2cncc(Cl)n2)n1 (centres unmarked)
Data returned: < 700 nM

Data request: Identify measured EC50 associated with Fc1cc(Cl)cc(C2CCCCN2c2nc(Cl)ncc2F)c1 (single isomer, unassigned) [compound 404]
Data returned: < 700 nM

Data request: State, in one line, measured EC50 of COc1ccc(C2CCCCN2c2ccc(C(F)(F)F)cn2)cc1Br (centres unmarked)
Data returned: > 2100 nM
